Source: ChEMBL document CHEMBL3124815

target: RAF proto-oncogene serine/threonine-protein kinase (Homo sapiens, UniProt P04049); experiment: Inhibition of CRAF (unknown origin) compound preincubated for 1 hr in presence of 1000 uM ATP
Sequence (P04049 whole entry): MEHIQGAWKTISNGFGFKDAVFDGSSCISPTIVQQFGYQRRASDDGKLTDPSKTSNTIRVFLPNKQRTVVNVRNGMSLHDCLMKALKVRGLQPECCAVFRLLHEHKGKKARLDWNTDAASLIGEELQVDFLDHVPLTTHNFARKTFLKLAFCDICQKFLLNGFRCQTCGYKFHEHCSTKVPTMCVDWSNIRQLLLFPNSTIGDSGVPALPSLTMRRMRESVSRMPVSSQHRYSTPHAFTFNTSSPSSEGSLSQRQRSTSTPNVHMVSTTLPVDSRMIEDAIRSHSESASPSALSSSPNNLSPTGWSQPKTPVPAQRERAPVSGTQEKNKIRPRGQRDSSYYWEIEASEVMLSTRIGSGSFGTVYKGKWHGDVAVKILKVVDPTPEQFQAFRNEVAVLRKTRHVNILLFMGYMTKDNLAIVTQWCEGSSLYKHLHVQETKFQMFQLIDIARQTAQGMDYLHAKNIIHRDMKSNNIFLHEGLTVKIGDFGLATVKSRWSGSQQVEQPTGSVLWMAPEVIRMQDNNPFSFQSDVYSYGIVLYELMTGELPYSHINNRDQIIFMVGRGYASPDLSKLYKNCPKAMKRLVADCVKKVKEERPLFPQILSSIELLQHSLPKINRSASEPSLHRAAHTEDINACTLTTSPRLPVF
READOUT: pIC50
pIC50 here: minus log base 10 of the concentration, concentration in moles per litre.

Incoming: API: value(readout=pIC50, system=RAF proto-oncogene serine/threonine-protein kinase (Homo sapiens, UniProt P04049)) for record `N#Cc1c(Oc2ccc(F)c(NC(=O)Cc3cccc(C(F)(F)F)c3)c2)ccc2nc(NC(=O)C3CC3)sc12`
Outgoing: 8.30

---

biological target: Mast/stem cell growth factor receptor Kit (Homo sapiens)
Sequence (P10721 whole entry): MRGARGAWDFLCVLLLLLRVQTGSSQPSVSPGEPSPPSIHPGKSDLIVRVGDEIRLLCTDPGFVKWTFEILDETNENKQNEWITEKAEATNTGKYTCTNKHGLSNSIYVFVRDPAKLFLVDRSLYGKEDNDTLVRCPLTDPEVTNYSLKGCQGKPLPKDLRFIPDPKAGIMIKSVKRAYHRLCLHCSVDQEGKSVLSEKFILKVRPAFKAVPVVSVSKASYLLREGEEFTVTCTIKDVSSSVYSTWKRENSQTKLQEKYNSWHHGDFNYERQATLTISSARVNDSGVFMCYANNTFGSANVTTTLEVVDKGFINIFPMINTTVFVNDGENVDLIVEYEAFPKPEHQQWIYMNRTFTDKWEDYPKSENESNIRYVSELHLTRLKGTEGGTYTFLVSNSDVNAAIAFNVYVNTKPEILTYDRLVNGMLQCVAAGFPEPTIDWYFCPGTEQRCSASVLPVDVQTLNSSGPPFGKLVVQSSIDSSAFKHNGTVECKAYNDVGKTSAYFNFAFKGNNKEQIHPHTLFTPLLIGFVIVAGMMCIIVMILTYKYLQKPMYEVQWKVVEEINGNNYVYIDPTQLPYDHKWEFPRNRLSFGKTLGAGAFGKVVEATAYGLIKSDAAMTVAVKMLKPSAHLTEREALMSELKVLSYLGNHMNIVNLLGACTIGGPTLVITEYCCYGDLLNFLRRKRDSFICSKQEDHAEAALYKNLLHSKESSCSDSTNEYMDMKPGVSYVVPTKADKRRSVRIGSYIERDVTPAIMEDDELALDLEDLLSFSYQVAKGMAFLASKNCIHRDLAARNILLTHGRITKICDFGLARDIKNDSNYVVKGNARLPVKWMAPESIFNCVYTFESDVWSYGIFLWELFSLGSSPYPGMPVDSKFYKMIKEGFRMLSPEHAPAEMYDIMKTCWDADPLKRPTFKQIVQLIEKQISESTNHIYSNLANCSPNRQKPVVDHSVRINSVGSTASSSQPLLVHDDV
READOUT: IC50

Incoming: Quick one: IC50 of `N#Cc1c(Oc2ccc(F)c(NC(=O)Cc3cccc(C(F)(F)F)c3)c2)ccc2nc(NC(=O)C3CC3)sc12` ?
Outgoing: > 10 µM
